tested-on: bovine thrombin (Bos taurus)
Construct: purchased Mochida Co., Ltd
procedure-summary: Antithrombin activity: coagulation inhibition of rat plasma
Assay type: biochemical
pIC50: −log10 of the molar value.
measurement-kind: pIC50

| compound | measurement-kind | sign | numeric-result |
| --- | --- | --- | --- |
| NC(=NO)c1ccc(CNC(=O)[C@@H]2CCCN2C(=O)Cc2ccccc2)cc1 [compound 25] | pIC50 | < | 3.52 |
| CC(C)C[C@@H](NS(C)(=O)=O)C(=O)N1CCC[C@H]1C(=O)NC[C@H]1CC[C@H](C(=N)N)CC1 [compound 19] | pIC50 | = | 7.51 |
| CC(C)OC(=O)N[C@H](CC(C)(C)C)C(=O)N1CCC[C@H]1C(=O)NC[C@H]1CC[C@H](N)CC1 [compound 56] | pIC50 | = | 7.10 |
| N[C@H]1CC[C@H](CNC(=O)[C@@H]2CCCN2C(=O)[C@H](O)C2CCCCC2)CC1 [compound 61] | pIC50 | = | 7.25 |
| CS(=O)(=O)N[C@H](CC1CCCCC1)C(=O)N1CCC[C@H]1C(=O)NC[C@H]1CC[C@H](C(=N)N)CC1 [compound 20] | pIC50 | = | 7.55 |
| CS(=O)(=O)N[C@H](COc1cccc(C(=O)O)c1)C(=O)N1CCC[C@H]1C(=O)NCc1ccc(C(=N)N)cc1 [compound 9] | pIC50 | = | 6.96 |

====

tested-on: bovine thrombin (Bos taurus)
Construct: purchased Mochida Co., Ltd
procedure-summary: Antithrombin activity: hydrolysis inhibition of synthetic substrate (S-2238)
Assay type: biochemical
pIC50: −log10 of the molar value.

| compound | tested-on | pIC50 |
| --- | --- | --- |
| CC(C)OC(=O)N[C@H](CC(C)(C)C)C(=O)N1CCC[C@H]1C(=O)NC[C@H]1CC[C@H](N)CC1 [compound 56] | bovine thrombin (Bos taurus) | 6.89 |
| CS(=O)(=O)N[C@H](Cc1ccccc1)C(=O)N1CCC[C@H]1C(=O)NC[C@H]1CC[C@H](NC(=N)N)CC1 [compound 67] | bovine thrombin (Bos taurus) | 6.25 |
| N=C(N)c1ccc(CNC(=O)[C@@H]2CCCN2C(=O)CCCc2ccccc2)cc1 [compound 13] | bovine thrombin (Bos taurus) | 6.14 |
